# System: secretion of atrial natriuretic factor
# test-method-notes: Anti-hypertrophic activity in NRVM, ANF ELISA (ANF secretion)
# Type: cell-based, rat
# protocol-conditions: Rattus norvegicus, read-out: IC50 of the ANF ELISA (antihypertrophic activity)
# Protocol: Anti-hypertrophic Activity of Racemic Compound 1 and Purified Enantiomers of Compound 1. Neonatal rat ventricular myocytes (NRVM) were isolated from 1 to 3 day-old Sprague-Dawley rats using enzymatic digestion and myocyte enrichment techniques. NRVM were cultured in serum-containing media for 18 hours. For the continuation of culture, serum-free media was used. […]
reported-property: IC50 (nM)
Quick reminder: number only, in nM, skip the unit.

Prompt: Give the measured IC50 of CC(=O)C1=C(C)NC(SCC(=O)c2cccc([N+](=O)[O-])c2)=C(C#N)C1c1ccccc1Cl (racemic) .
Completion: 427
